# Tested on: HCT-15 colon carcinoma
# test: Inhibition of cellular proliferation in tumor cell lines (CellTiter Glo), HCT-15
# Type: cell-based
# cond: Homo sapiens; HCT-15, 72 hours of continuous compound exposure; read-out: Cell Base Activity GI50 HCT-15
readout: GI50

Lookup: # value lookup — system HCT-15 colon carcinoma, readout GI50, item C[C@H]1O[C@H](CN)CN([C@@H](c2nc(-c3cccc(F)c3)cn2Cc2ccccc2)C(C)(C)C)C1=O [Compound 15]
Found: > 1000 nM

Lookup: Look up GI50 with HCT-15 colon carcinoma for this compound: CC(C)(C)[C@H](c1nc(-c2ccccc2)cn1Cc1ccccc1)N1C[C@@H](CN)COCC1=O [Compound 25]
Found: 100 to 1000 nM

Lookup: Kindly state the measured GI50 obtained for CC(C)(C)[C@H](c1nc(-c2cccc(F)c2)cn1Cc1ccccc1)N1C[C@@H](CN)COCC1=O [Compound 27] with HCT-15 colon carcinoma.
Found: 100 to 1000 nM

Lookup: Request - read-out GI50 | tested on HCT-15 colon carcinoma | compound CC(C)(C)[C@H](c1nc(-c2ccccc2)cn1Cc1ccccc1)N1C[C@@H](CN)NCCC1=O [Compound 20]
Found: > 1000 nM

Lookup: What reported GI50 corresponds to CC(C)(C)[C@H](c1nc(-c2ccccc2)cn1Cc1ccccc1)N1C[C@@H](CN)NC(=O)C1=O [Compound 16] on HCT-15 colon carcinoma?
Found: > 1000 nM

Lookup: Fill in the recorded GI50 for this compound, with HCT-15 colon carcinoma as test system: CC(C)[C@H](c1nc(-c2cccc(Cl)c2)cn1Cc1ccccc1)N1CC(CN)OC1=O (stereo partly shown) [Compound 3]
Found: > 1000 nM

Lookup: What reported GI50 corresponds to CC(C)(C)[C@H](c1nc(-c2ccccc2)cn1Cc1ccccc1)N1C[C@H](CN)OCC1=O [Compound 6] on HCT-15 colon carcinoma?
Found: > 1000 nM

Lookup: Look up GI50 with HCT-15 colon carcinoma for this compound: CN1C(=O)C(=O)N([C@@H](c2nc(-c3ccccc3)cn2Cc2ccccc2)C(C)(C)C)C[C@H]1CN [Compound 18]
Found: 100 to 1000 nM

Lookup: # value lookup — system HCT-15 colon carcinoma, readout GI50, item CC(C)(C)[C@H](c1nc(-c2cccc(F)c2)cn1Cc1cccc(F)c1)N1C[C@@H](CN)COCC1=O [Compound 28]
Found: ≤ 100 nM

Lookup: Form entry - test system: HCT-15 colon carcinoma; read-out: GI50; compound: CC(C)(C)[C@H](c1nc(-c2ccccc2)cn1Cc1ccccc1)N1CC(CCN)OC1=O (stereo in doubt) [Compound 1]
Found: > 1000 nM

Lookup: Any idea what GI50 came out for CC(C)(C)[C@H](c1nc(-c2ccccc2)cn1Cc1ccccc1)N1C[C@H](CN)NC(=O)C1=O [Compound 17] on HCT-15 colon carcinoma?
Found: > 1000 nM

Lookup: What reported GI50 corresponds to CC(C)[C@H](c1nc(-c2cccc(Cl)c2)cn1Cc1ccccc1)N1C[C@H](CN)OCC1=O [Compound 9] on HCT-15 colon carcinoma?
Found: 100 to 1000 nM

Lookup: Give HCT-15 colon carcinoma GI50 for CC(C)(C)[C@H](c1nc(-c2ccccc2)cn1Cc1ccccc1)N1C[C@@H](CN)OCC1=O [Compound 7]
Found: 100 to 1000 nM

Lookup: Form field: GI50 recorded for C[C@@H]1O[C@H](CN)CN([C@@H](c2nc(-c3cccc(F)c3)cn2Cc2ccccc2)C(C)(C)C)C1=O [Compound 14] with HCT-15 colon carcinoma (enter value)
Found: > 1000 nM

Lookup: Provide the documented GI50 with HCT-15 colon carcinoma as the system for CC(C)(C)[C@H](c1nc(-c2cccc(F)c2)cn1Cc1cccc(F)c1)N1C[C@H](CN)COCC1=O [Compound 29]
Found: 100 to 1000 nM

Lookup: Enter reported GI50 observed with HCT-15 colon carcinoma for CC(C)(C)[C@H](c1nc(-c2ccccc2)cn1Cc1ccccc1)N1C[C@@H](CN)OCCC1=O [Compound 23]
Found: > 1000 nM
